Every entry's value here was drawn from PubChem BioAssay.

experiment notes: E. coli acrAB mutant growth effects, primary screen, E. coli filamentation inducers, strain DRC39, OD650, 48 h (AID 1179);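 also: screen aims at cell division blockers that make cells filament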
condition label: E. coli DRC39 delta-acrAB growth, higher = more signal, called active from +8 up or from −8 down
Active and inactive are the calls of the source.
readout kind: z-score

CCOC(=O)[C@H](CC(C)C)NC(=O)CCC1CC(OC(=O)NCc2cccc3ccccc23)CC2(CCCC(COC(=O)NCc3cccc(C(F)(F)F)c3)O2)O1 (some centres not stated)	1.08 (inactive)

# map each compound to its z-score
1. CC(C)CON=C1[C@H]2CCn3c(=O)n(Cc4cc5c(cc4Cl)OCO5)c(=O)n3[C@H]2[C@H](O)[C@@H]2O[C@H]12
2. Cc1cc2c(nc1C)CCCCN2CC(C)ON=C1[C@H]2CCn3c(=O)n(-c4ccccc4)c(=O)n3[C@H]2[C@H](O)[C@@H]2O[C@H]12 (some centres not stated)
3. O=c1n(-c2ccccc2)c(=O)n2n1CC[C@@H]1C(=NOCc3ccccc3)[C@H]3O[C@H]3[C@@H](O)[C@@H]12
4. C[C@@H](c1ccccc1)N1C(=O)[C@H]2[C@H]3[C@H](O)[C@H](O)CC(=NOCc4ccccc4)[C@H]3CC[C@H]2C1=O
5. C=C(C)C(=O)OCC1CN2[C@@H](CC[C@@H](C)[C@@H]2c2ccc(Br)cc2)C(=O)O1 (some centres not stated)
6. CO[C@H]1COC(=O)[C@@H](C)COC(=O)[C@H](C)NC(=O)CC=C[C@H]1C

-- reply
-1.6 (inactive)
1.2 (inactive)
-0.604 (inactive)
1.12 (inactive)
-1.59 (inactive)
-0.539 (inactive)
